The compounds listed here are annotated with their AC50.
# tgt: Cytochrome P450 3A4 (Homo sapiens, UniProt P08684)
# Sequence (P08684 whole entry): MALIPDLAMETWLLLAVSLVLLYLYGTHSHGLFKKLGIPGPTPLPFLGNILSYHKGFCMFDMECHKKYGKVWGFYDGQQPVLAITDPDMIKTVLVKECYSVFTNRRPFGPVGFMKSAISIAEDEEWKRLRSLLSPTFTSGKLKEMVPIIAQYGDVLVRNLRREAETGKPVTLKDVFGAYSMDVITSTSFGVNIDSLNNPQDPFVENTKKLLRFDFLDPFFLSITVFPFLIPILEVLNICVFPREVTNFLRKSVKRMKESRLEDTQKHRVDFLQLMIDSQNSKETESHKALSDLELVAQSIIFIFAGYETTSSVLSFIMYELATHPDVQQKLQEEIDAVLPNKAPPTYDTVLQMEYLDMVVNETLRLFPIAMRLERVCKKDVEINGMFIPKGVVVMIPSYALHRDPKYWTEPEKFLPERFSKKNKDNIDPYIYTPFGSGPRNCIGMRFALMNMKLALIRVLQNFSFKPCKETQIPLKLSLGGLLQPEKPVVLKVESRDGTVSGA

Example entries begin here.
COc1ccc(C(=O)N2CCC3(CC2)CN(c2ccncc2)C3)cc1 | 15.8 µM (inconclusive)
O=C1C2CCC(C(O)C2)N1Cc1ccccc1 (centres undefined) | 17.8 µM (inconclusive)
Cn1c(=O)c(-c2cccc(F)c2)nc2cncnc21 | 20 µM (inconclusive)
C#CCCCO/N=C1/C[C@@H](O)[C@@H](O)[C@@H]2[C@@H]3C(=O)N(C[C@@H]4CCCO4)C(=O)[C@H]3CC[C@H]12 | 6.31 µM (inconclusive)
CCCCn1nc2cc(C(=O)NC3CCCc4ccccc43)ccc2c1OCC (centres undefined) | 35.5 µM (inconclusive)

Please report the recorded AC50 for O=c1c2ccccc2c(-c2ccc(Br)cc2)nn1Cc1ccccc1 .
25.1 µM (inconclusive)

Look up AC50: COC(=O)c1scc(C)c1NC(=O)Cc1ccccc1
22.4 µM (inconclusive)

# AC50 lookup, item O=C(N/N=C/c1ccc(Cl)cc1Cl)c1cccc(F)c1
31.6 µM (inconclusive)

What value of AC50 has been recorded for this entry: OCCN(/C=N/C1=NN(c2cccc(C(F)(F)F)c2)CC1)CCO
14.1 µM (inconclusive)

May I ask what AC50 has been recorded for O=c1c(-c2ccc(Cl)cc2)nc2cnc(N3CCNCC3)nc2n1-c1ccccc1 ?
12.6 µM (inconclusive)

Quick check: AC50 of CN1C(=O)c2ccccc2Sc2ccc(C(=O)N3CCC4(CC3)OCCO4)cc21 ?
20 µM (inconclusive)

Look up AC50: COc1cc2c(cc1O)[C@H]1Cc3ccc(OC)c(O)c3CN1CC2
12.6 µM (inconclusive)

So what does the record say about AC50 for CN(C)c1ncnc2ccc(-c3ccccc3C#N)cc12 ?
1.58 µM (inconclusive)

AC50 lookup needed for Nc1n[nH]c2ccccc12 , thanks.
3.98 µM (inconclusive)

# get_value(readout='AC50', item= COC(=O)[C@@H]1CC[C@H](C)[C@@H](c2ccc(C)cc2)N1C(=O)c1ccc(/C=N\O[C@@H](C)CN2CCCc3nc(C)c(C)cc32)cc1 )
3.98 µM (inconclusive)

Report AC50 for O=C(O)/C=C\c1c[nH]cn1 [CIS-UROCANIC ACID] please.
0.251 µM (inconclusive)

If you can, please state the reported AC50 value of CNCC[C@@H](Oc1ccccc1C)c1ccccc1 [ATOMOXETINE] .
12.6 µM (inconclusive)

// AC50 lookup, key: O=C(CSc1nc2ccccc2c2ccccc12)c1ccccc1
3.98 µM (inconclusive)

Param item = Cc1nc(-c2cccnc2)sc1C(N)=O ; retrieve measured AC50.
28.2 µM (inconclusive)

So what's the measured AC50 for this one? Cc1ccccc1C(=O)N1CCc2ccccc2C1
6.31 µM (inconclusive)

Suppose we examine the compound N#C/C(=C(/O)CN1CCCCC1)c1nc(-c2ccc(Cl)cc2)cs1 ; what AC50 value has been reported?
10 µM (inconclusive)

Query: AC50; subject: Cc1c(CCC(C)C)c(-n2ccnc2C)n2c(nc3ccccc32)c1C#N
14.1 µM (inconclusive)

I'd like to know its AC50. The compound in question is CCc1cc2c(nc1CC)CCN(CC/C(C)=N/OCC[C@@H]1C=C[C@H](OC(C)=O)[C@H](COC(C)=O)O1)C2
3.16 µM (inconclusive)

Bench note: what AC50 did COCCn1c(=O)c(-c2ccccc2)nc2cnc(OC)nc21 show?
25.1 µM (inconclusive)

Please look up its AC50: CCCC1(C(=O)OC)C=C2C(=C(c3ccccc3)C(=O)C2C)CN1 (centres undefined)
10 µM (inconclusive)
